- Tested on: NOMO1
- method: cell viability relative to DMSO control; higher = less cytotoxic
- stated conditions: HPLM + 10% dialyzed FBS; 48 h; 0.00702 µM
cell viability for assorted molecules
quantity kind: cell viability (%)

[
  {
    "molecule": "C[C@@H]1CC[C@@]2(OC1)OC1CC3C4CC=C5CC(O)CCC5(C)C4CCC3(C)C1[C@@H]2C (stereo not given in full)",
    "result number": 105
  },
  {
    "molecule": "N#CC(=C(/N)Sc1ccccc1N)/C(C#N)=C(\\N)Sc1ccccc1N",
    "result number": 122
  },
  {
    "molecule": "O=C1N\\2CCC3=C([NH]C4=C3C=CC=C4)C2=N/C5=CC=CC=C15",
    "result number": 130
  },
  {
    "molecule": "Cc1c(C(=O)Nc2cccc(C(F)(F)F)c2)cc(-c2ccccc2)n1CCCN1CCOCC1",
    "result number": 112
  },
  {
    "molecule": "O=[N+]([O-])c1cnc(Sc2nnc(O)n2-c2ccc3c(c2)OCCO3)s1",
    "result number": 101
  }
]

###

- System: P12-Ichikawa
- method: cell viability relative to DMSO control; higher = less cytotoxic
- stated conditions: RPMI 5 mM glucose + 10% FBS; 48 h; 5.12 µM

[
  {
    "molecule": "Cc1c(C(=O)Nc2cccc(C(F)(F)F)c2)cc(-c2ccccc2)n1CCCN1CCOCC1",
    "cell viability [%]": 97.1
  },
  {
    "molecule": "CCN(C)C(=O)Oc1cccc([C@H](C)N(C)C)c1",
    "cell viability [%]": 95.6
  },
  {
    "molecule": "Cc1[nH]c(/C=C2\\C(=O)Nc3ccc([S+](=O)([O-])Cc4c(Cl)cccc4Cl)cc32)c(C)c1C(=O)N1CCC[C@@H]1CN1CCCC1",
    "cell viability [%]": 81.5
  },
  {
    "molecule": "CC(C)NCC(O)c1ccc(NS(C)(=O)=O)cc1 (configuration not stated)",
    "cell viability [%]": 101
  },
  {
    "molecule": "CC(C)C[C@H](NC(=O)[C@H](Cc1ccccc1)NC(=O)c1cnccn1)B(O)O",
    "cell viability [%]": 1.36
  },
  {
    "molecule": "CCN1C[C@]2(OC(=O)c3ccccc3NC(C)=O)CC[C@H](OC)[C@@]34[C@@H]2C[C@@H]([C@@H]13)[C@@]1(O)C[C@H](OC)[C@H]2C[C@@H]4[C@]1(O)[C@H]2OC",
    "cell viability [%]": 99.1
  },
  {
    "molecule": "OC1=CC=C(C=C1)\\C2=C\\C(=O)C3=C(O2)C=C(O)C=C3O",
    "cell viability [%]": 104
  },
  {
    "molecule": "CC(C)(C)NC(=O)[C@H]1CC[C@H]2[C@@H]3CC[C@H]4NC(=O)\\C=C/[C@]4(C)[C@H]3CC[C@]12C",
    "cell viability [%]": 103
  },
  {
    "molecule": "CC1(C)CC(O)CC(C)(C)N1[O]",
    "cell viability [%]": 119
  },
  {
    "molecule": "NCC(=O)Nc1ccc(-n2nc(C(F)(F)F)cc2-c2ccc3c(ccc4ccccc43)c2)cc1",
    "cell viability [%]": 92.1
  },
  {
    "molecule": "CCCCCCCCc1ccc(CCC(N)(CO)CO)cc1",
    "cell viability [%]": 80.8
  },
  {
    "molecule": "CC(C)c1ccccc1Cc1cc(C(=O)Nc2ccc([S+](=O)([O-])c3ccccc3C(C)(C)C)cc2)c(O)c(O)c1O",
    "cell viability [%]": 108
  }
]

###

- Tested on: SEM cells
- method: cell viability relative to DMSO control; higher = less cytotoxic
- stated conditions: HPLM + 10% dialyzed FBS; 48 h; 0.0632 µM

[
  {
    "compound": "CC1COC2=C3N1\\C=C(C(O)=O)/C(=O)C3=CC(=C2N4CCN(C)CC4)F (stereo not drawn)",
    "test system": "SEM cells",
    "cell viability": "121%"
  },
  {
    "compound": "COC[C@H]1OC(=O)C2=COC3=C2[C@@]1(C)\\C4=C(\\[C@@H]5CC[C@H](O)[C@@]5(C)C[C@H]4OC(C)=O)C3=O",
    "test system": "SEM cells",
    "cell viability": "113%"
  },
  {
    "compound": "O=C1NC(=O)/C(=C/c2cccc(C(F)(F)F)c2)S1",
    "test system": "SEM cells",
    "cell viability": "101%"
  },
  {
    "compound": "CN(C)CC/C=C1/c2ccccc2COc2ccc(CC(=O)O)cc21",
    "test system": "SEM cells",
    "cell viability": "113%"
  },
  {
    "compound": "CC[C@@]1(O)C[C@H](O[C@H]2C[C@H](N(C)C)[C@H](O[C@H]3C[C@H](O)[C@H](O[C@H]4CCC(=O)[C@H](C)O4)[C@H](C)O3)[C@H](C)O2)c2c(cc3c(c2O)C(=O)c2c(O)cccc2C3=O)[C@H]1C(=O)OC",
    "test system": "SEM cells",
    "cell viability": "48.4%"
  },
  {
    "compound": "CN(C)c1ccc(Nc2nc(N)n(C(=O)c3c(F)cccc3F)n2)cc1",
    "test system": "SEM cells",
    "cell viability": "111%"
  },
  {
    "compound": "O=C(CCc1ccc(O)cc1)c1c(O)cc(O)cc1O[C@@H]1O[C@H](CO)[C@@H](O)[C@H](O)[C@H]1O",
    "test system": "SEM cells",
    "cell viability": "100%"
  },
  {
    "compound": "O=C1CCc2ccc(OCCCCN3CCN(c4cccc(Cl)c4Cl)CC3)cc2N1",
    "test system": "SEM cells",
    "cell viability": "113%"
  }
]

###

- Test system: NOMO1
- method: cell viability relative to DMSO control; higher = less cytotoxic
- stated conditions: RPMI 5 mM glucose + 10% dialyzed FBS; 48 h; 1.71 µM
Kindly apply the following: met if cell viability is less than 90%, not met in every other case.

[
  {
    "molecule": "Cc1ncc([N+](=O)[O-])n1CCO",
    "test system": "NOMO1",
    "classification": "not met"
  },
  {
    "molecule": "C[S+]([O-])c1ccc(-c2nc(-c3ccc(F)cc3)c(-c3ccncc3)[nH]2)cc1 (stereo not drawn)",
    "test system": "NOMO1",
    "classification": "met"
  },
  {
    "molecule": "CC(C)c1ccccc1Cc1cc(C(=O)Nc2ccc([S+](=O)([O-])c3ccccc3C(C)(C)C)cc2)c(O)c(O)c1O",
    "test system": "NOMO1",
    "classification": "not met"
  },
  {
    "molecule": "COc1cc2ncnc(Nc3cccc(Br)c3)c2cc1OC",
    "test system": "NOMO1",
    "classification": "not met"
  },
  {
    "molecule": "OC1=CC=C(C=C1)\\C2=C\\C(=O)C3=C(O2)C=C(O)C=C3O",
    "test system": "NOMO1",
    "classification": "not met"
  },
  {
    "molecule": "CC(C)NCC(O)c1ccc(NS(C)(=O)=O)cc1 (stereo not drawn)",
    "test system": "NOMO1",
    "classification": "not met"
  },
  {
    "molecule": "O=C(NNC(=O)c1ccc(CN[S+](=O)([O-])c2ccc(F)c(Cl)c2)cc1)c1ccccc1",
    "test system": "NOMO1",
    "classification": "not met"
  },
  {
    "molecule": "Cc1cc(Cl)ccc1OCCCC(=O)NO",
    "test system": "NOMO1",
    "classification": "not met"
  },
  {
    "molecule": "CO[C@H]1C[C@@H]2CC[C@@H](C)[C@@](O)(O2)C(=O)C(=O)N2CCCC[C@H]2C(=O)O[C@H]([C@H](C)C[C@@H]2CC[C@@H](OCCO)[C@H](OC)C2)CC(=O)[C@H](C)/C=C(/C)[C@@H](O)[C@@H](OC)C(=O)[C@H](C)C[C@H](C)\\C=C/C=C\\C=C/1C",
    "test system": "NOMO1",
    "classification": "met"
  },
  {
    "molecule": "NC(=O)Nc1cc(-c2ccc(CN3CCOCC3)cc2)sc1C(N)=O",
    "test system": "NOMO1",
    "classification": "met"
  },
  {
    "molecule": "CN(C)CCN(Cc1ccc(Cl)cc1)c1ccccn1.Cl",
    "test system": "NOMO1",
    "classification": "met"
  },
  {
    "molecule": "CN(C)c1ccc2cc(C(=O)N[C@@H](CCCNC(=N)CCl)C(=O)NCc3ccccc3)ccc2c1",
    "test system": "NOMO1",
    "classification": "not met"
  },
  {
    "molecule": "COC[C@H]1OC(=O)C2=COC3=C2[C@@]1(C)\\C4=C(\\[C@@H]5CC[C@H](O)[C@@]5(C)C[C@H]4OC(C)=O)C3=O",
    "test system": "NOMO1",
    "classification": "not met"
  }
]
